Assay: Hemolysis test
Assay type: cell-based, SD rats
Settings: SD, rat, rat red blood cells, 2% (v/v) suspension; 4.7 nmol/mL, 37 °C, 1.5 h; read-out: hemolysis rate
experimental-endpoint: hemolysis at 1.5 h, 4.7 nmol/mL (%)
Answers are plain numbers, in %.

The reported hemolysis at 1.5 h, 4.7 nmol/mL of the molecule CO[C@H]1C(=O)[C@]2(C)[C@@H](OC)C[C@H]3OC[C@@]3(OC(C)=O)[C@H]2[C@H](OC(=O)c2ccccc2)[C@]2(O)C[C@H](OC(=O)[C@H](O)[C@@H](NC(=O)OC(C)(C)C)c3ccccc3)C(C)=C1C2(C)C was 11

----------
Assay: Tissue distribution
Details: both, SD, rat, spleen, iv, 6 μmol/kg
experimental-endpoint: concentration at 12 h (ng/g)
Answers are plain numbers, in ng/g.

The reported concentration at 12 h of the compound CO[C@H]1C(=O)[C@]2(C)[C@@H](OC)C[C@H]3OC[C@@]3(OC(C)=O)[C@H]2[C@H](OC(=O)c2ccccc2)[C@]2(O)C[C@H](OC(=O)[C@H](O)[C@@H](NC(=O)OC(C)(C)C)c3ccccc3)C(C)=C1C2(C)C was 54

----------
Test: Plasma pharmacokinetics (non-compartmental)
Conditions: both, SD, rat, in vivo, iv, 6 umol/kg
experimental-endpoint: AUC(0-t) (µg·h/mL)
One number for each entry, in µg·h/mL.

The reported AUC(0-t) of the compound COC1C(=O)C2(C)C(OC)CC3OCC3(OC(C)=O)C2C(OC(=O)c2ccccc2)C2(O)CC(OC(=O)C(OC(=O)CN(CCN(CCN(CC(=O)O)CC(=O)O)CC(=O)O)CC(=O)O)C(NC(=O)OC(C)(C)C)c3ccccc3)C(C)=C1C2(C)C (stereo not shown) [CTX-DTPA] was 1.33

----------
Assay: Tissue distribution
Settings: both, SD, rat, lung, iv, 6 μmol/kg
experimental-endpoint: concentration at 12 h (ng/g)
Answers are plain numbers, in ng/g.

The reported concentration at 12 h of the molecule CO[C@H]1C(=O)[C@]2(C)[C@@H](OC)C[C@H]3OC[C@@]3(OC(C)=O)[C@H]2[C@H](OC(=O)c2ccccc2)[C@]2(O)C[C@H](OC(=O)[C@H](O)[C@@H](NC(=O)OC(C)(C)C)c3ccccc3)C(C)=C1C2(C)C [CTX, Cabazitaxel] was 79

----------
Test: Tissue distribution
Conditions: both, SD, rat, heart, iv, 6 μmol/kg
experimental-endpoint: concentration at 2 h (ng/g)
One number for each entry, in ng/g.

The reported concentration at 2 h of the molecule CO[C@H]1C(=O)[C@]2(C)[C@@H](OC)C[C@H]3OC[C@@]3(OC(C)=O)[C@H]2[C@H](OC(=O)c2ccccc2)[C@]2(O)C[C@H](OC(=O)[C@H](O)[C@@H](NC(=O)OC(C)(C)C)c3ccccc3)C(C)=C1C2(C)C [CTX, Cabazitaxel] was 24.6

----------
Assay: Tissue distribution
Conditions: both, SD, rat, in vivo, iv, 6 μmol/kg, tissue concentration, thymus, 15 min, SD rats 6 μmol/kg iv, dosed compound
Description: Male and female SD rats (200–220 g) received intravenous injections of CTX or CTX-DTPA (6 μmol/kg). CTX was dissolved in 2.5% Tween 80/2.5% EtOH/saline, while CTX-DTPA used saline alone. Blood samples were collected at 5 min to 24 h post-dose. […] Plasma and tissue samples were processed by liquid-liquid extraction with n-butanol and analyzed via LC-MS/MS (Agilent Poroshell 120 EC-C18 column; 0.05% formic acid/acetonitrile gradient). […]
experimental-endpoint: concentration at 15 min (ng/g)
Answers are plain numbers, in ng/g.

The reported concentration at 15 min of the compound COC1C(=O)C2(C)C(OC)CC3OCC3(OC(C)=O)C2C(OC(=O)c2ccccc2)C2(O)CC(OC(=O)C(OC(=O)CN(CCN(CCN(CC(=O)O)CC(=O)O)CC(=O)O)CC(=O)O)C(NC(=O)OC(C)(C)C)c3ccccc3)C(C)=C1C2(C)C (stereo not shown) was 0.62

----------
Assay: Tissue distribution
Conditions: both, SD, rat, lung, iv, 6 μmol/kg
Experimental: Male and female SD rats (200–220 g) received intravenous injections of CTX or CTX-DTPA (6 μmol/kg). CTX was dissolved in 2.5% Tween 80/2.5% EtOH/saline, while CTX-DTPA used saline alone. Blood samples were collected at 5 min to 24 h post-dose. […] Plasma and tissue samples were processed by liquid-liquid extraction with n-butanol and analyzed via LC-MS/MS (Agilent Poroshell 120 EC-C18 column; 0.05% formic acid/acetonitrile gradient). […]
experimental-endpoint: concentration at 15 min (ng/g)
Answers are plain numbers, in ng/g.

The reported concentration at 15 min of the molecule CO[C@H]1C(=O)[C@]2(C)[C@@H](OC)C[C@H]3OC[C@@]3(OC(C)=O)[C@H]2[C@H](OC(=O)c2ccccc2)[C@]2(O)C[C@H](OC(=O)[C@H](O)[C@@H](NC(=O)OC(C)(C)C)c3ccccc3)C(C)=C1C2(C)C [CTX, Cabazitaxel] was 133

----------
Experiment: Tissue distribution
Settings: both, SD, rat, heart, iv, 6 μmol/kg
experimental-endpoint: concentration at 12 h (ng/g)
Answers are plain numbers, in ng/g.

The reported concentration at 12 h of the compound CO[C@H]1C(=O)[C@]2(C)[C@@H](OC)C[C@H]3OC[C@@]3(OC(C)=O)[C@H]2[C@H](OC(=O)c2ccccc2)[C@]2(O)C[C@H](OC(=O)[C@H](O)[C@@H](NC(=O)OC(C)(C)C)c3ccccc3)C(C)=C1C2(C)C [CTX, Cabazitaxel] was 12.6

----------
Test: Plasma pharmacokinetics (non-compartmental)
Conditions: both, SD, rat, plasma, iv, 6 umol/kg
experimental-endpoint: clearance (mL/min/kg)
One number for each entry, in mL/min/kg.

The reported clearance of the compound CO[C@H]1C(=O)[C@]2(C)[C@@H](OC)C[C@H]3OC[C@@]3(OC(C)=O)[C@H]2[C@H](OC(=O)c2ccccc2)[C@]2(O)C[C@H](OC(=O)[C@H](O)[C@@H](NC(=O)OC(C)(C)C)c3ccccc3)C(C)=C1C2(C)C [CTX, Cabazitaxel] was 50.2

----------
Assay: Tissue distribution
Conditions: both, SD, rat, lung, iv, 6 μmol/kg
experimental-endpoint: concentration at 4 h (ng/g)
Numbers only, in ng/g.

The reported concentration at 4 h of the compound CO[C@H]1C(=O)[C@]2(C)[C@@H](OC)C[C@H]3OC[C@@]3(OC(C)=O)[C@H]2[C@H](OC(=O)c2ccccc2)[C@]2(O)C[C@H](OC(=O)[C@H](O)[C@@H](NC(=O)OC(C)(C)C)c3ccccc3)C(C)=C1C2(C)C was 107

----------
Test: Tissue distribution
Settings: both, SD, rat, spleen, iv, 6 μmol/kg
experimental-endpoint: concentration at 15 min

The reported concentration at 15 min of the compound CO[C@H]1C(=O)[C@]2(C)[C@@H](OC)C[C@H]3OC[C@@]3(OC(C)=O)[C@H]2[C@H](OC(=O)c2ccccc2)[C@]2(O)C[C@H](OC(=O)[C@H](O)[C@@H](NC(=O)OC(C)(C)C)c3ccccc3)C(C)=C1C2(C)C [CTX, Cabazitaxel] was 250 ng/g

----------
Assay: Hemolysis test
Assay type: cell-based, SD rats
Details: SD, rat, rat red blood cells, 2% (v/v) suspension; concentrations up to 150 nmol/mL, 37 °C, 1.5 h
experimental-endpoint: hemolysis at 1.5 h

- molecule: "COC1C(=O)C2(C)C(OC)CC3OCC3(OC(C)=O)C2C(OC(=O)c2ccccc2)C2(O)CC(OC(=O)C(OC(=O)CN(CCN(CCN(CC(=O)O)CC(=O)O)CC(=O)O)CC(=O)O)C(NC(=O)OC(C)(C)C)c3ccccc3)C(C)=C1C2(C)C (centres unmarked)"
  value: "< 2%"

The reported hemolysis at 1.5 h of the molecule COC1C(=O)C2(C)C(OC)CC3OCC3(OC(C)=O)C2C(OC(=O)c2ccccc2)C2(O)CC(OC(=O)C(OC(=O)CN(CCN(CCN(CCN(CC(=O)O)CC(=O)O)CC(=O)O)CC(=O)O)CC(=O)O)C(NC(=O)OC(C)(C)C)c3ccccc3)C(C)=C1C2(C)C (centres unmarked) was < 2%

----------
Test: Tissue distribution
Settings: both, SD, rat, kidney, iv, 6 μmol/kg
experimental-endpoint: concentration at 2 h (ng/g)
Numbers only, in ng/g.

The reported concentration at 2 h of the molecule CO[C@H]1C(=O)[C@]2(C)[C@@H](OC)C[C@H]3OC[C@@]3(OC(C)=O)[C@H]2[C@H](OC(=O)c2ccccc2)[C@]2(O)C[C@H](OC(=O)[C@H](O)[C@@H](NC(=O)OC(C)(C)C)c3ccccc3)C(C)=C1C2(C)C was 313

----------
Assay: Tissue distribution
Settings: both, SD, rat, liver, iv, 6 μmol/kg
experimental-endpoint: concentration at 4 h (ng/g)
Numbers only, in ng/g.

The reported concentration at 4 h of the compound CO[C@H]1C(=O)[C@]2(C)[C@@H](OC)C[C@H]3OC[C@@]3(OC(C)=O)[C@H]2[C@H](OC(=O)c2ccccc2)[C@]2(O)C[C@H](OC(=O)[C@H](O)[C@@H](NC(=O)OC(C)(C)C)c3ccccc3)C(C)=C1C2(C)C [CTX, Cabazitaxel] was 48.7
